tested on: SF-295; experiment: NCI tumour cell line growth inhibition, 48 h
Activity calls are given as the source filed them. Rule as the data show it: active = GI50 up to about 1.1 µM and inactive = higher.
Your response should consist of one outcome taken from label 1 (active), label 0 (inactive)

Below, 4 compounds whose answers are already recorded.
| compound | assayed-target | cat |
| --- | --- | --- |
| CC1(c2sccc2Cl)CC(c2sccc2Cl)=C(C#N)C(=C(C#N)C#N)N1 (stereo not given) | SF-295 | label 0 |
| C=C1Cc2cc(OC)c(OC)c(OC)c2-c2ccc(SC)c(=O)cc21 | SF-295 | label 1 |
| Cc1ccc2nc(CC(=O)c3ccc4ccccc4c3)c(O)nc2c1 | SF-295 | label 0 |
| O=C1Nc2ccccc2/C1=C/c1c(Cl)[nH]c2ccc(O)cc12 | SF-295 | label 0 |

Field: next compound
Recorded call for COC(=O)CC1c2ccccc2N2C(=O)Cc3c([nH]c4ccccc34)C12 (stereo not given) ?
label 0

###

test system: U-251; experiment: NCI tumour cell line growth inhibition, 48 h
The source made the active and inactive calls. No stated cut-off is given here; in the data, active = GI50 up to about 1.1 µM and inactive = higher.
// classify into yes (1) for active, no (0) for inactive

| compound | cat |
| --- | --- |
| Cc1cccc(/C=N/NC(=S)N2CCCC2)n1 | yes (1) |
| O=[N+]([O-])c1cccc(C2SCc3nc4ccccc4n32)c1 (stereo not given) | no (0) |
| NC(=O)NC1C(C(N)=O)N(Cc2ccccc2)C(=O)N1Cc1ccccc1 (stereo not given) | no (0) |

How did this test come out for "O=C(O)[C@@H]1OCCOCCO[C@@H](C(=O)O)[C@H](C(=O)O)OCCOCCO[C@H]1C(=O)O" ?
no (0)

Outcome? "CN(C(=O)c1ccncc1)c1ccccc1"
no (0)

Dear colleague, could you share the recorded outcome for "CS(=O)(=O)C(=Cc1ccccc1Cl)S(C)(=O)=O" when you have a moment?
no (0)

What was the test verdict on CC1CN=C(N(C(=O)Nc2ccc(Cl)cc2)c2cccc(Cl)c2)S1 (stereo not given) ?
no (0)

Given CCCN(CCC)C1CCc2c(ccc3cc[nH]c23)C1 (stereo not given) , state the outcome it received in this test.
no (0)

Which outcome was assigned to "CCOC(=O)c1sc(=S)n(-c2ccc(Cl)cc2)c1-n1cc(-c2ccccc2)c(C#N)c1N" in this test?
no (0)

Fill in: this test's call for "C[C@@]1(O)C[C@@H](N2C(=O)O[C@@H](c3ccccc3)[C@H]2c2ccccc2)[C@@H]1COCc1ccccc1" is ___
no (0)

Which outcome was assigned to COC(=O)/C(=N\Nc1nnc(C)n1N)C(C#N)c1ccc(Cl)cc1 (stereo not given) in this test?
no (0)

Field: outcome | Entry: "CCOC(=O)/C(C(=S)Nc1ccccc1)=C(/N)N1CCCC1"
no (0)

###

test system: UACC-62; test: NCI tumour cell line growth inhibition, 48 h
Active and inactive are the calls of the source. No stated cut-off is given here; in the data, active = GI50 up to about 1.1 µM and inactive = higher.
// one of TRUE for active, FALSE for inactive, no free text

Examples with answers:
| compound | cat |
| --- | --- |
| O=C(CCC(=O)Nc1ccc(Cl)cc1)CC(=O)c1ccc(F)cc1 | FALSE |
| c1ccc2c(c1)nc1n2CCCn2ccnc2-1 | FALSE |
| COc1cc2c(cc1OCCCOS(C)(=O)=O)N=C[C@@H]1CCCN1C2=O | FALSE |
| CC(C)(C)NCc1cc(Nc2ccnc3cc(Cl)ccc23)cc(-c2ccc(Cl)cc2)c1O | FALSE |
| O=C1CC[C@H]2CNC(=O)C[C@H]2C1 | FALSE |

Tell me the recorded outcome of this test for "Nc1nc(Cl)cc(NCC2(CO)CCC2)n1" .
FALSE

In this assay, the call recorded for "c1ccc(C(=NNc2nc3ccccc3[nH]2)c2ccccn2)nc1" was what?
TRUE

For "COc1cccc(-c2cc(O)c3cc(OC)c(OC)cc3n2)c1" , what call appears in the results of this test?
FALSE

// param item: O=C1OC(CCCN2CCCCC2)(c2ccccc2)CC12CCCC2 (stereo not drawn) ; yields the recorded call
FALSE

Any idea what this test logged for CCC1C(c2cccc(OC)c2O)c2cc3c(cc2OC1N1CCCC1)OCO3 (stereo not drawn) ?
FALSE

What call does the record list for "CC(=O)NC(c1nc2cc(C)c(C)cc2[nH]1)c1nc2cc(C)c(C)cc2[nH]1" ?
FALSE

Tell me the recorded outcome of this test for COc1ccc(N2C(=O)C3c4[nH]c5ccc(F)cc5c4C4CCC(c5ccccc5)CC4C3C2=O)cc1 (stereo not drawn) .
FALSE

Please state the recorded outcome for this compound: "O=C1C(=O)N(c2cccc(C(F)(F)F)c2)C(=O)C(=O)C1c1nc2ccccc2s1"
FALSE

Given "CN(C(=O)c1ccncc1)c1ccccc1" , state the outcome it received in this test.
FALSE

Recorded test call requested for "Cc1nc2ccc([N+](=O)[O-])cc2c(=O)n1C(=S)Nc1cccc(Cl)c1"
FALSE

# fetch the recorded call for "CCCN1C(=O)/C(=C\c2ccc(OC)c(OC)c2)S/C1=N\c1ccccc1" here
FALSE

Could you check what this test reported for "CCOC(=O)P(=O)(O)c1ccc(N(C)Cc2ccccc2)cc1" ?
FALSE

Identify the outcome logged in this assay for the compound shown: COc1cc2c(cc1OC)C1=Cc3ccc(OC)c(OC)c3C(C#N)N1CC2 (stereo not drawn)
FALSE

Which result was noted for this compound in the test: CCOC(=O)C1=C(C)N(c2ccc(OC)cc2)C2(O)C=CC(O)=C3C(=O)c4ccccc4C(=O)C312 (stereo not drawn)
FALSE

Identify the outcome logged in this assay for the compound shown: "Cc1cnc2sn(-c3ccc([N+](=O)[O-])cc3)c(=O)c2c1"
FALSE

Test call, this compound: CCOP(=O)(OCC)OC(C#N)c1ccc(-c2ccccc2)cc1 (stereo not drawn)
FALSE

Call for entry "COc1cc(-c2c(C)c(C)nc(OC)c2C#N)cc(OC)c1OC" :
FALSE

Recorded test outcome, item "C[n+]1c(-c2ccc(/C=N/Nc3ccnc(N/N=C/c4ccc(-c5cn6ccsc6[n+]5C)cc4)n3)cc2)cn2ccsc21"
FALSE

Write down the call the test reported for this compound. Item: N#CC1C2CCC3(CC2CCN1C(=O)c1ccccc1)OCCO3 (stereo not drawn)
FALSE

Please let me know the test result on file for CSc1nc(NC2OC(COC(C)=O)C(OC(C)=O)C(OC(C)=O)C2OC(C)=O)c(/N=C\C=N/c2c(NC3OC(COC(C)=O)C(OC(C)=O)C(OC(C)=O)C3OC(C)=O)nc(SC)n(C)c2=O)c(=O)n1C (stereo not drawn) .
FALSE

Recorded test outcome, item COc1ccc2c3c(c4cc(OC)c(OC)cc4c2c1)CN1CCC[C@H]1[C@@H]3O [TYLOPHORININE]
TRUE

Any idea what this test logged for "Cc1cc(N(CCC#N)CCC#N)ccc1/C=C1N=C(/C=C\c2ccccc2)N(NC(=O)CC(=O)Nc2ccccc2Cl)C\1=O" ?
FALSE

Outcome logged for "O=C1C(c2ccccc2)=C(c2ccccc2)[C@H](c2ccccc2)[C@]1(Cc1nnn(-c2ccc([N+](=O)[O-])cc2)c1N1CCOCC1)c1ccccc1" in this assay:
FALSE
